Origin of measurements: patent US5001121A

// values below are MIC; system is Klebsiella pneumoniae IFO3317
outcomeMeasure: MIC

compound="CC(=O)Oc1cc(C(=O)O)c(CO/N=C(\\C(=O)N[C@@H]2C(=O)N3C(C(=O)O)=C(CSc4cc(C)nc5nc(C(=O)O)nn45)CS[C@H]23)c2csc(N)n2)cc1O [Compound 5]" outcomemeasure=MIC valueobserved="< 0.05 µg/mL"
compound="Nc1nc(/C(=N/OC(C(=O)O)c2ccc(O)c(O)c2)C(=O)N[C@@H]2C(=O)N3C(C(=O)[O-])=C(C[n+]4ccccc4)CS[C@H]23)cs1 (some centres unmarked) [Compound 14]" outcomemeasure=MIC valueobserved="0.1 µg/mL"
compound="Cc1cc(=O)n2nc(SCC3=C(C(=O)O)N4C(=O)[C@@H](NC(=O)/C(=N\\OC(=O)c5cc(O)c(O)cc5C)c5csc(N)n5)[C@H]4SC3)sc2n1 [Compound 4]" outcomemeasure=MIC valueobserved="< 0.05 µg/mL"
compound="CC(=O)Oc1cc(C)c(C(=O)O/N=C(\\C(=O)N[C@@H]2C(=O)N3C(C(=O)O)=C(CSc4cc(C)nc5nc(C(=O)O)nn45)CS[C@H]23)c2csc(N)n2)cc1OC(C)=O [Compound 2]" outcomemeasure=MIC valueobserved="< 0.05 µg/mL"
compound="CC(=O)Oc1ccc([C@@H](O/N=C(\\C(=O)N[C@@H]2C(=O)N3C(C(=O)O)=C(CSc4cc(C)nc5nc(C(=O)O)nn45)CS[C@H]23)c2csc(N)n2)C(=O)O)cc1OC(C)=O [Compound 8]" outcomemeasure=MIC valueobserved="< 0.05 µg/mL"

###

test system: Staphylococcus aureus Smith
outcomeMeasure: log10 MIC (log10 of the value in µg/mL)

compound="Nc1nc(/C(=N/OC(C(=O)O)c2ccc(O)c(O)c2)C(=O)N[C@@H]2C(=O)N3C(C(=O)O)=C(CSc4cc(C(=O)O)c5nnnn5n4)CS[C@H]23)cs1 (some centres unmarked)" valueobserved=0.19
compound=Cc1cc(SCC2=C(C(=O)O)N3C(=O)[C@@H](NC(=O)/C(=N\OC(C)(C)C(=O)c4ccc(O)c(O)c4)c4csc(N)n4)[C@H]3SC2)n2nc(C(=O)O)nc2n1 valueobserved=0.80
compound="Cc1cc(SCC2=C(C(=O)O)N3C(=O)[C@@H](NC(=O)/C(=N\\OC(C)(C(=O)O)c4ccc(O)c(O)c4)c4csc(N)n4)[C@H]3SC2)n2nc(C(=O)O)nc2n1 (some centres unmarked)" valueobserved=-0.11
compound=Cc1cc(SCC2=C(C(=O)O)N3C(=O)[C@@H](NC(=O)/C(=N\O[C@H](C(=O)O)c4ccc(O)c(O)c4)c4csc(N)n4)[C@H]3SC2)n2nc(C(=O)O)nc2n1 valueobserved=-0.11
compound="Cc1cc(SCC2=C(C(=O)O)N3C(=O)[C@@H](NC(=O)C(NC(=O)c4ccc(O)c(O)c4)c4csc(N)n4)[C@H]3SC2)n2nc(C(=O)O)nc2n1 (some centres unmarked)" valueobserved=0.50
compound=CC(=O)Oc1cc(C)c(C(=O)O/N=C(\C(=O)N[C@@H]2C(=O)N3C(C(=O)O)=C(CSc4cc(C)nc5nc(C(=O)O)nn45)CS[C@H]23)c2csc(N)n2)cc1OC(C)=O valueobserved=-0.11
compound=Nc1nc(/C(=N/O[C@H](C(=O)O)c2ccc(O)c(O)c2)C(=O)N[C@@H]2C(=O)N3C(C(=O)[O-])=C(C[n+]4ccccc4)CS[C@H]23)cs1 valueobserved=-0.11
compound=Cc1cc(=O)n2nc(SCC3=C(C(=O)O)N4C(=O)[C@@H](NC(=O)/C(=N\OC(=O)c5cc(O)c(O)cc5C)c5csc(N)n5)[C@H]4SC3)sc2n1 valueobserved=-0.41
compound="Nc1nc(/C(=N/OC(C(=O)O)c2ccc(O)c(O)c2)C(=O)N[C@@H]2C(=O)N3C(C(=O)[O-])=C(C[n+]4ccccc4)CS[C@H]23)cs1 (some centres unmarked)" valueobserved=-0.11
compound=Nc1nc(/C(=N/O[C@H](C(=O)O)c2ccc(O)c(O)c2)C(=O)N[C@@H]2C(=O)N3C(C(=O)[O-])=C(C[n+]4cccc5c4CCC5)CS[C@H]23)cs1 valueobserved=-0.11
compound=Cc1cc(SCC2=C(C(=O)O)N3C(=O)[C@@H](NC(=O)/C(=N\OC(=O)c4cc(O)c(O)c(O)c4)c4csc(N)n4)[C@H]3SC2)n2nc(C(=O)O)nc2n1 valueobserved=-0.11
compound=Cc1cc(SCC2=C(C(=O)O)N3C(=O)[C@@H](NC(=O)/C(=N\O[C@@H](C(=O)O)c4ccc(O)c(O)c4)c4csc(N)n4)[C@H]3SC2)n2nc(C(=O)O)nc2n1 valueobserved=-0.11
compound=CC(=O)Oc1cc(C(=O)O)c(CO/N=C(\C(=O)N[C@@H]2C(=O)N3C(C(=O)O)=C(CSc4cc(C)nc5nc(C(=O)O)nn45)CS[C@H]23)c2csc(N)n2)cc1O valueobserved=0.19
compound="Cc1cc(SCC2=C(C(=O)O)N3C(=O)[C@@H](NC(=O)/C(=N\\OC(C(=O)O)c4cc(O)c(O)c(O)c4)c4csc(N)n4)[C@H]3SC2)n2nc(C(=O)O)nc2n1 (some centres unmarked)" valueobserved=-0.11
